System: NCI-H1975
testName: Antiproliferative activity against gefitinib-resistant human NCI-H1975 cells assessed as growth inhibition after 72 hrs by SRB assay
Assay type: functional, cell-based
measurementParameters: NCI-H1975, 72 h
Listed next: entries and their corresponding pIC50.
# pIC50: negative log10 of molar concentration; output just the value

{"substanceSmiles": "CN(C)CCCN(C)CC(=O)Nc1cc2c(Nc3ccc(F)c(Cl)c3)ncnc2s1", "experimentalSystem": "NCI-H1975", "pIC50": 4.72}
{"substanceSmiles": "O=C(CCl)Nc1cc2c(Nc3ccc(F)c(Cl)c3)ncnc2s1", "experimentalSystem": "NCI-H1975", "pIC50": 5.52}
{"substanceSmiles": "CN(C)CCCC(=O)Nc1cc2c(Nc3ccc(F)c(Cl)c3)ncnc2s1", "experimentalSystem": "NCI-H1975", "pIC50": 4.53}

Now consider the entry below.
Exam item: What value of pIC50 has been reported for the following molecule? COC(CN(C)C/C=C/C(=O)Nc1cc2c(Nc3ccc(F)c(Cl)c3)ncnc2s1)OC
Marked response: 5.31

====

As an illustration, consider measured pIC50 for compounds on UniProtKB P00533.
Sequence (P00533 whole entry): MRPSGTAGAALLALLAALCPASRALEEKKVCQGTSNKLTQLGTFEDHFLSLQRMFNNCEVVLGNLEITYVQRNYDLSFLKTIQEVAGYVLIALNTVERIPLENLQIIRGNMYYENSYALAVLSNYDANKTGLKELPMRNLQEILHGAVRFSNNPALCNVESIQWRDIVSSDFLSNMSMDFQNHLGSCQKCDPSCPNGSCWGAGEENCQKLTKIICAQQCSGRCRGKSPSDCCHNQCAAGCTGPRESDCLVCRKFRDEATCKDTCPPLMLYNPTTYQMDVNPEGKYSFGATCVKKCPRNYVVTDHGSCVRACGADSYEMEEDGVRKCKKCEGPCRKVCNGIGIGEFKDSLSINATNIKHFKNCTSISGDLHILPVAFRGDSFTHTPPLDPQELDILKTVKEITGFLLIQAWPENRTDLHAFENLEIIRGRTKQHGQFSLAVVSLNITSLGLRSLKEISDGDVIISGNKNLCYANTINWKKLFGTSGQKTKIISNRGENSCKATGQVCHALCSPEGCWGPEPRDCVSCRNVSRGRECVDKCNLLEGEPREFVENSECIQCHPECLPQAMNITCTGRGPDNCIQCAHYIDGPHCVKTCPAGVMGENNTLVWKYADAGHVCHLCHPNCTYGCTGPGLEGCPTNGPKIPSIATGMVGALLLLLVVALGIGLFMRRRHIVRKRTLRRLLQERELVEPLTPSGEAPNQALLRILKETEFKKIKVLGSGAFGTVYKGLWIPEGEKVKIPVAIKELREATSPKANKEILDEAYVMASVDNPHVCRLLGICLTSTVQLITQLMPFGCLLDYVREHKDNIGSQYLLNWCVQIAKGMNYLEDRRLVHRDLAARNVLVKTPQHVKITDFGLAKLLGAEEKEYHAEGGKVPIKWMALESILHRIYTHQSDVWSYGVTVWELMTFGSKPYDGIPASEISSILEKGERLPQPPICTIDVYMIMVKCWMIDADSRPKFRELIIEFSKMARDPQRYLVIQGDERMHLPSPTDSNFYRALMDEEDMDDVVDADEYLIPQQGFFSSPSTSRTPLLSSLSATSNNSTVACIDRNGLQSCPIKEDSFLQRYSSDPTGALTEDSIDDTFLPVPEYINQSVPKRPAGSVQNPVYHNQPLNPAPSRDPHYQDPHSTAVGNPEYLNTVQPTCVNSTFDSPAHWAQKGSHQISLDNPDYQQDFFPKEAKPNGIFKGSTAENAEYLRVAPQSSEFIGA
pIC50 is a log-scale quantity: -log10 of the concentration expressed in molar.

Example entries begin here.
{"substanceSmiles": "O=C(/C=C/CNC1CCOCC1)Nc1cc2c(Nc3ccc(F)c(Cl)c3)ncnc2s1", "experimentalSystem": "UniProtKB P00533", "pIC50": 7.70}
{"substanceSmiles": "CN(C)CCCC(=O)Nc1cc2c(Nc3ccc(F)c(Cl)c3)ncnc2s1", "experimentalSystem": "UniProtKB P00533", "pIC50": 6.10}

# input for lookup
Exam item: Query (compound): COCCNC/C=C/C(=O)Nc1cc2c(Nc3ccc(F)c(Cl)c3)ncnc2s1 ; field requested: pIC50
Marked response: 5.98

====

Here the recorded pIC50 is given for each entry.
Test system: NCI-H1975
testName: Antiproliferative activity against gefitinib-resistant human NCI-H1975 cells assessed as growth inhibition after 72 hrs by SRB assay
Assay type: functional, cell-based
measurementParameters: NCI-H1975, 72 h
A value of pIC50 is the negative decimal logarithm of a concentration given in moles per litre.

{"substanceSmiles": "CN1CCN(C/C=C/C(=O)Nc2cc3c(Nc4ccc(F)c(Cl)c4)ncnc3s2)CC1", "experimentalSystem": "NCI-H1975", "recordedMeasurement": 4.46}
{"substanceSmiles": "CN1CCN(CC(=O)Nc2cc3c(Nc4ccc(F)c(Cl)c4)ncnc3s2)CC1", "experimentalSystem": "NCI-H1975", "recordedMeasurement": 4.67}
{"substanceSmiles": "C=CC(=O)Nc1cc2c(Nc3ccc(F)c(Cl)c3)ncnc2s1", "experimentalSystem": "NCI-H1975", "recordedMeasurement": 5.52}
{"substanceSmiles": "O=C(/C=C/CN1CCC(F)CC1)Nc1cc2c(Nc3ccc(F)c(Cl)c3)ncnc2s1", "experimentalSystem": "NCI-H1975", "recordedMeasurement": 4.97}
{"substanceSmiles": "O=C(/C=C/CN1CC2(CCOCC2)C1)Nc1cc2c(Nc3ccc(F)c(Cl)c3)ncnc2s1", "experimentalSystem": "NCI-H1975", "recordedMeasurement": 4.41}

Exam item: Request the reported pIC50 associated with O=C(/C=C/CN1CCC(F)(F)CC1)Nc1cc2c(Nc3ccc(F)c(Cl)c3)ncnc2s1
Marked response: 5.29

Exam item: Request: O=C(/C=C/CN1CC(O)C1)Nc1cc2c(Nc3ccc(F)c(Cl)c3)ncnc2s1
Marked response: 5.17

Exam item: For CN(C)C/C=C/C(=O)Nc1cc2c(Nc3ccc(F)c(Cl)c3)ncnc2s1 then?
Marked response: 5.00

Exam item: Next: CSC1CCN(C/C=C/C(=O)Nc2cc3c(Nc4ccc(F)c(Cl)c4)ncnc3s2)CC1
Marked response: 5.28

====

Consider the following molecules and their measured pIC50 readings.
System: NCI-H1975
testName: Antiproliferative activity against gefitinib-resistant human NCI-H1975 cells assessed as growth inhibition after 72 hrs by SRB assay
Type: functional, cell-based
measurementParameters: NCI-H1975, 72 h
A value of pIC50 is the negative decimal logarithm of a concentration given in moles per litre.

Known results for molecules:
{"substanceSmiles": "CCN(CC)C/C=C/C(=O)Nc1cc2c(Nc3ccc(F)c(Cl)c3)ncnc2s1", "pIC50": 4.94}
{"substanceSmiles": "CN(C)CCN(C)CC(=O)Nc1cc2c(Nc3ccc(F)c(Cl)c3)ncnc2s1", "pIC50": 4.76}
{"substanceSmiles": "O=C(/C=C/CN1CCS(=O)(=O)CC1)Nc1cc2c(Nc3ccc(F)c(Cl)c3)ncnc2s1", "pIC50": 4.12}

Exam item: Reported pIC50, molecule O=C(Nc1cc2c(Nc3ccc(F)c(Cl)c3)ncnc2s1)C1CCCC1 : ____
Marked response: 4.41

Exam item: Thanks! And CS(=O)(=O)CCNC/C=C/C(=O)Nc1cc2c(Nc3ccc(F)c(Cl)c3)ncnc2s1 ?
Marked response: 4.35

Exam item: Consider next the molecule O=C(/C=C/CNCC1COC1)Nc1cc2c(Nc3ccc(F)c(Cl)c3)ncnc2s1 in the same way.
Marked response: 4.21

====

Below, each entry is listed alongside its reported IC50.
Test system: NCI-H1975
testName: Antiproliferative activity against gefitinib-resistant human NCI-H1975 cells assessed as growth inhibition after 72 hrs by SRB assay
Format: functional, cell-based
measurementParameters: NCI-H1975, 72 h

{"substanceSmiles": "CCN(CC)CCN(C)C/C=C/C(=O)Nc1cc2c(Nc3ccc(F)c(Cl)c3)ncnc2s1", "experimentalSystem": "NCI-H1975", "IC50": "> 100 µM"}
{"substanceSmiles": "CN(C)CCCN(C)C/C=C/C(=O)Nc1cc2c(Nc3ccc(F)c(Cl)c3)ncnc2s1", "experimentalSystem": "NCI-H1975", "IC50": "> 100 µM"}

Exam item: What value of IC50 has been reported for the following compound? CN(C)CCCNC/C=C/C(=O)Nc1cc2c(Nc3ccc(F)c(Cl)c3)ncnc2s1
Marked response: > 100 µM

Exam item: Another compound to check: O=C(CN1CCN(CCO)CC1)Nc1cc2c(Nc3ccc(F)c(Cl)c3)ncnc2s1
Marked response: > 100 µM

Exam item: Quick one: C/C=C(\C)C(=O)Nc1cc2c(Nc3ccc(F)c(Cl)c3)ncnc2s1
Marked response: > 100 µM

Exam item: Cool, now CCC(CC)C(=O)Nc1cc2c(Nc3ccc(F)c(Cl)c3)ncnc2s1
Marked response: > 100 µM

Exam item: Do the same for CCCCC(=O)Nc1cc2c(Nc3ccc(F)c(Cl)c3)ncnc2s1 please
Marked response: > 100 µM

Exam item: And the next one, COC(=O)CCCC(=O)Nc1cc2c(Nc3ccc(F)c(Cl)c3)ncnc2s1 ?
Marked response: > 100 µM

Exam item: And COC(=O)CC(=O)Nc1cc2c(Nc3ccc(F)c(Cl)c3)ncnc2s1 ?
Marked response: > 100 µM
